Cited source: paper PMC3865801

Target: recombinant purified mouse perforin (Mus musculus)
Sequence (P10820 21-554): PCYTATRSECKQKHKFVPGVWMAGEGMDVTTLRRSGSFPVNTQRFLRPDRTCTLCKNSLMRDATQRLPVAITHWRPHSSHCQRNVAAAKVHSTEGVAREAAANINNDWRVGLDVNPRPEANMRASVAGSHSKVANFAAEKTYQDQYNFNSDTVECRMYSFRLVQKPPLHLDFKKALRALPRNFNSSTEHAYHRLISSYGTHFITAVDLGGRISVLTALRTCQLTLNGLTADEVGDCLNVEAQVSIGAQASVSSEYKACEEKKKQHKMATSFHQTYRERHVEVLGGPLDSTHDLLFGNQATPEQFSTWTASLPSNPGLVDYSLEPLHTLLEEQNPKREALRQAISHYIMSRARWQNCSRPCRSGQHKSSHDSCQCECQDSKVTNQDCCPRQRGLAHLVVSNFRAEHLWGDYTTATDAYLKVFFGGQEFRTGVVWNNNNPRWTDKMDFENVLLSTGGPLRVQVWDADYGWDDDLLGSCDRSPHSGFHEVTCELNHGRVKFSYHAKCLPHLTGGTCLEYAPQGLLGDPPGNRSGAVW
Test: Inhibitor binding to immobilized perforin by SPR (Biacore T200)
Details: SI Figure 3: further dilution series 0–2.5 µM, single site specific binding model; read-out: calculated KD
parameter: Kd (nM)
Record the value in nM, omitting the unit from your answer.

Entry CC1c2cc(-c3ccc(/C=C4/NC(=S)NC4=O)s3)ccc2C(=O)N1C (stereo not shown) [compound 135] : reported Kd = ? 2390
